System: SGK;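 also: KINOMEscan scanMAX binding as percent activity remaining versus control; lower means stronger binding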
Construct: gene SGK1
Condition: Compound Concentration (nM):1000
Test Readout: Percent Control (%)
Numbers only, in %.

Examples from the recorded data:
CC(C)COC(=O)c1ccc2c(c1)/C(=C/Nc1ccc(S(N)(=O)=O)cc1)C(=O)N2 [GW416981X] = 31
Cl.O=C(Nc1ccc(Oc2ccc3[nH]c(NC(=O)c4ccco4)nc3c2)cc1)Nc1cc(C(F)(F)F)ccc1F [GW683134A] = 100
C/C(Nc1ccc(S(N)(=O)=O)cc1)=C1/C(=O)Nc2ccccc21 [GW335962X] = 21

Record Percent Control per entry; entries follow.
1. COC(=O)Nc1nc2ccc(Oc3ccc(NC(=O)Nc4cc(C(F)(F)F)ccc4F)cc3)cc2s1.Cl [GW693917A]
2. COc1cccc(-n2ncc3c(N/N=C/c4ccncc4)ncnc32)c1 [GW784752X]
3. NS(=O)(=O)c1ccc(N/N=C2\C(=O)Nc3ccc(C(=O)NCCc4c[nH]cn4)cc32)cc1 [GW300660X]
4. COc1ccccc1-c1cc(/C=C2\C(=O)Nc3ncc(Br)cc32)cc(Br)c1O [GW442130X]
5. Cc1cc(O)cc(C)c1/C=C/c1cncc(C(N)=O)c1 [GW435821X]
6. COc1cc2ncn(-c3cc(O[C@H](C)c4ccccc4Cl)c(C(N)=O)s3)c2cc1OC [GSK237701A]
7. CN(C)CCNC(=O)Nc1ccc(N(C)c2ccnc(Nc3ccc(CS(C)(=O)=O)cc3)n2)cc1.Cl [GW830900A]
8. Cl.c1ccc(Cc2nc3ccc(Nc4ncnc5ccccc45)cc3[nH]2)cc1 [GR269666A]

Ans:
87
57
26
71
100
90
48
100

Provide Percent Control values for the following items, in order.
1. O=C1Nc2ccc(C(=O)c3ccco3)cc2C1=Cc1cc(Cl)c(O)c(Cl)c1 [GW406108X]
2. Cl.O=C(Nc1ccc(Oc2ccc3[nH]c(NC(=O)c4ccccc4)nc3c2)cc1)Nc1cc(C(F)(F)F)ccc1F [GW709042A]
3. COc1ccc2[nH]c3c4[nH]c5ccc(OC)cc5c4c4c(c3c2c1)C(=O)NC4=O [GW296115X]

Ans:
1. 83
2. 100
3. 6.8

Give Percent Control for all compounds that follow.
1. COc1cc(N2CCN(C(C)C)CC2)ccc1Nc1nc(Nc2ccc(F)cc2C(=O)NC[C@@H](O)CO)c2cc[nH]c2n1 [GSK1392956A]
2. COc1cc(C)c(N(C)C(=O)CN(C)C)cc1Nc1nc(Nc2cccc(F)c2C(N)=O)c2cc[nH]c2n1 [GSK2219385]
3. NS(=O)(=O)c1ccc(N/N=C2\C(=O)Nc3ccc(Cl)cc32)cc1 [GW280670X]
4. CC1=C(C(=O)Nc2ccc3[nH]ncc3c2)C(c2ccc(Cl)c(Cl)c2)CC(=O)N1 (centres unmarked) [GSK299115A]
5. NS(=O)(=O)c1ccc(N/N=C2\C(=O)Nc3ccc(C(=O)NCc4ccncc4)cc32)cc1 [GW300657X]
6. C[C@@H](Oc1cc(-n2cnc3ccc(OC4CCN(C)CC4)cc32)sc1C(N)=O)c1ccccc1Cl [GSK579289A]

Ans:
1: 99; 2: 92; 3: 100; 4: 72; 5: 36; 6: 90
